Target: human ApoC3 (human)
Sequence (chain, as listed by the source): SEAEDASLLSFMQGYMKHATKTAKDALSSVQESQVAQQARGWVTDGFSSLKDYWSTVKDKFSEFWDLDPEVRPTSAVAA
Assay: SPR pH 5.5, antibody immobilized
pKd: −log10 of the molar value.
MEASURE NAME: pKd

>>> measured_number("mAb8 (antibody, V domains shown) VH: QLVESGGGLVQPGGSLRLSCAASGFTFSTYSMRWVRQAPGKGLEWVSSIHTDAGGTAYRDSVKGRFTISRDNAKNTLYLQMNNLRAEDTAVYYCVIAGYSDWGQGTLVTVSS VL: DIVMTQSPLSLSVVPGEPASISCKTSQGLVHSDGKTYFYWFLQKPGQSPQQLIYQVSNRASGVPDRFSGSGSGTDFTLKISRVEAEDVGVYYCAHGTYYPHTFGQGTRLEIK")
6.62
>>> measured_number("mAb7 (antibody, V domains shown) VH: QLVESGGGLVQPGGSLRLSCAASGFTFSTYSMRWVRQAPGKGLEWVSSIHTGGGGTAYRDSVKGRFTISRDNAKNTLYLQMNNLRAEDTAIYYCVIAGYSDWGQGTLVTVSS VL: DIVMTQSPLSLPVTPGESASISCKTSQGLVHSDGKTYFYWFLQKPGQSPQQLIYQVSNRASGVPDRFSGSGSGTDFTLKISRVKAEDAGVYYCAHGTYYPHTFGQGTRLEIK")
6.23
>>> measured_number("mAb6 (antibody, V domains shown) VH: QLVESGGGLVQPGGSLRLSCAASGFTFGTYSMRWVRQAPGKGLEWVSSIHTEGGGTAYRDSVKGRFTISRDNAKNTLYLQMNSLRAEDTAVYYCVIAGYSDWGQGTLVTVSS VL: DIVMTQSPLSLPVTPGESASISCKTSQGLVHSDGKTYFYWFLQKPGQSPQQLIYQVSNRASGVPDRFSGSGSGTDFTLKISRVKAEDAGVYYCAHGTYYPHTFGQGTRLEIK")
6.06
